Reference source: paper PMC5261807

- TESTED SYSTEM: T1, Bdf1 bromodomain 2 (GST-tagged, WT) (Saccharomyces cerevisiae (strain ATCC …, UniProt P35817))
- T1 chain: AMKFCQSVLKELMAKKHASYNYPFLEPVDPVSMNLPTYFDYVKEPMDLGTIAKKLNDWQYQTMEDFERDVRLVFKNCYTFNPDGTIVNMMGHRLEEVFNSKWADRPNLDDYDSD
- MEASUREMENT PROTOCOL: histone peptide array probed with recombinant GST-bromodomain, signal normalised to myc peptide control
Non-standard residues stand in square brackets, D forms with d. Primed or numbered codes have the meaning given here. No end group written: not given here. Me2s″ = symmetric dimethylarginine (Rme2s); Lys(Me3) = C[N+](C)(C)CCCC[C@H](N)C(=O)O; Arg(Me2s) = CN=C(NC)NCCC[C@H](N)C(=O)O; Lys(Me2) = CN(C)CCCC[C@H](N)C(=O)O
MEASURED PROPERTY: binding score
A bare number is all that is needed in reply.

Some entries whose results are on file:
1. ARTKQTARKSTGGKAPRKQ (A R T K Q T A R Kme2 S pT G G K A P R K Q) : 0
2. A[Arg(Me2s)]T[Lys(Me2)]QTA[Arg(Me2s)][Lys(Me3)]STGGKAPRKQ : 0
3. ARTKQTARKSTGGKAPRKQ (A Rme2a T Kme3 Q T A Rme2a Kac S T G G K A P R K Q) : 0
4. ARTK(Ac)QTAR(Me2s″)K(Ac)STGGKAPRKQ : 0.00915
5. ARTKQTARKSTGGKAPRKQ (A Rme2a T Kme1 Q T A Rme2a K S T G G K A P R K Q) : 0.00443

Next binder, please.
Ask | Endpoint output: binding score of `ARTKQTARKSTGGK(Ac)APRKQ` . Value?
Reply | 0.0733
